- testedTarget: human recombinant serotonin (5-Hydroxytryptamine) 5-HT2A receptor (Homo sapiens)
- Construct: expressed in transfected cells; host or cells: Chinese hamster ovary (CHO-K1) cells
- Sequence (P28223 whole entry): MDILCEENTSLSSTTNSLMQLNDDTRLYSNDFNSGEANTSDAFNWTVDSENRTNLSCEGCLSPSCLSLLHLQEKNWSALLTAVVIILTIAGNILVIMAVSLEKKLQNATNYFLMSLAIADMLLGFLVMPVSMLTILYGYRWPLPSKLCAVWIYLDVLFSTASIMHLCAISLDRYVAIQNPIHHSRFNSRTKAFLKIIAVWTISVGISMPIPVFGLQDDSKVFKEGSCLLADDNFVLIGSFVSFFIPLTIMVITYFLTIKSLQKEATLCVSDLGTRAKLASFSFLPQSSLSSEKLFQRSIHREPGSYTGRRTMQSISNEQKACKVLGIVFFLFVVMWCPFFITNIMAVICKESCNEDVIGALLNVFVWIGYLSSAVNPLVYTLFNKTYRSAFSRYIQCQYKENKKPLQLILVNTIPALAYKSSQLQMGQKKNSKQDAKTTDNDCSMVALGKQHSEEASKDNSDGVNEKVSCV
- assayOverview: Serotonin 5-HT2A radioligand binding ([3H]Ketanserin)
- conditionInfo: read-out: Inhibition of ligand binding, Serotonin 5-HT2A (percent inhibition of specific binding), compound at 1 μM
# inhibition at 1 µM per record follows
Write it as a number; the unit % goes unstated.

Please fill in: inhibition at 1 µM reported for C/C(=C/n1c2c(c3cc(C)ccc31)CN(C)CC2)c1ccc(Cl)c(Cl)c1 = 101

Item: CN1CCc2c(c3cc(Cl)ccc3n2/C=C(\c2ccc(F)cc2)C2CC2)C1 | inhibition at 1 µM: 100

response.value for CN1CCc2c(c3cc(Cl)ccc3n2CC(C)(O)c2ccc(F)cc2)C1 (centres unmarked) (field: inhibition at 1 µM) = 99

Recorded inhibition at 1 µM (compound C/C(=C\n1c2c(c3c(Cl)c(Cl)ccc31)CN(C)CC2)c1ccncc1 ): 102

Value of inhibition at 1 µM reported for the compound COc1ccc(/C(C)=C/n2c3c(c4cc(C)ccc42)CN(C)CC3)cc1F is 93

Item: Cc1ccc2c(c1)c1c(n2CC(C)(O)c2ccncc2)CCN(C)C1 (centres unmarked) | inhibition at 1 µM: 88

----------
- testedTarget: human recombinant serotonin (5-Hydroxytryptamine) 5-HT2A receptor (Homo sapiens)
- Construct: expressed in transfected cells; host or cells: Chinese hamster ovary (CHO-K1) cells
- assayOverview: Serotonin 5-HT2A radioligand binding ([3H]Ketanserin)
- conditionInfo: read-out: Inhibition of ligand binding, Serotonin 5-HT2A (percent inhibition of specific binding), compound at 0.1 μM
observedProperty: inhibition at 0.1 µM (%)
Just the number in %, nothing appended.

compound	observedProperty	readoutUnit	reportedValue
C/C(=C\n1c2c(c3cccc(F)c31)CN(C)CC2)c1ccc(C)nc1 [Compound 260]	inhibition at 0.1 µM	%	34
CN1CCc2c(c3cc(Cl)ccc3n2/C=C(/c2ccc(F)cc2)C2CC2)C1 [Compound 110]	inhibition at 0.1 µM	%	102
Cc1ccc2c(c1)c1c(n2CC(C)(O)c2ccncn2)CCN(C)C1 (stereo not drawn) [Compound 197]	inhibition at 0.1 µM	%	17
CCN1CCc2c(c3ccccc3n2/C=C(\C)c2ccncc2)C1 [Compound 266]	inhibition at 0.1 µM	%	67
CCN1CCc2c(c3cc(C)ccc3n2/C=C(\C)c2ccncc2)C1 [Compound 269]	inhibition at 0.1 µM	%	87
Cc1ccc2c(c1)c1c(n2CC(O)(c2ccncc2)C(C)C)CCN(C)C1 (stereo not drawn) [Compound 194]	inhibition at 0.1 µM	%	71
C/C(=C/n1c2c(c3cc(C)ccc31)CN(C)CC2)c1ccc(F)cc1F [Compound 274]	inhibition at 0.1 µM	%	98
C/C(=C\n1c2c(c3cccc(Cl)c31)CN(C)CC2)c1ccc(C)nc1 [Compound 252]	inhibition at 0.1 µM	%	67
C/C(=C\n1c2c(c3cc(C(F)(F)F)ccc31)CN(C)CC2)c1ccc(F)cc1 [Compound 268]	inhibition at 0.1 µM	%	98
CN1CCc2c(c3cc(Cl)ccc3n2CC(O)(c2ccc(F)cc2)C2CC2)C1 (stereo not drawn) [Compound 82]	inhibition at 0.1 µM	%	92

Quick note, inhibition at 0.1 µM for CN1CCc2c(c3cc(Cl)ccc3n2CC(C)(O)c2ccc(F)cc2)C1 (stereo not drawn) [Compound 45] landed at 86

Lab book: inhibition at 0.1 µM of C/C(=C\n1c2c(c3ccc(F)cc31)CN(C)CC2)c1ccc(C)nc1 [Compound 261] noted as 74

In plain terms, C/C(=C\n1c2c(c3cc(Cl)ccc31)CN(C)C(C)C2)c1ccc(C)nc1 (stereo not drawn) [Compound 273] has a documented inhibition at 0.1 µM of 94

Value of measured inhibition at 0.1 µM for the entry CCc1ccc2c(c1)c1c(n2/C=C(\C)c2ccncc2)CCN(C)C1 [Compound 270] : 92

C/C(=C\n1c2c(c3cc(C)ccc31)CN(C)CC2)c1ccncn1 [Compound 279] has a reported inhibition at 0.1 µM of 75

Reported inhibition at 0.1 µM ( C/C(=C\n1c2c(c3cc(C)ccc31)CN(C)C(C)C2)c1ccc(F)cc1 (stereo not drawn) [Compound 258] ) = 98

Entry C/C(=C\n1c2c(c3cc(OC(F)(F)F)ccc31)CN(C)CC2)c1ccncc1 [Compound 263] — recorded inhibition at 0.1 µM = 64

// inhibition at 0.1 µM value for C/C(=C\n1c2c(c3cc(C)ccc31)CN(C)C(C)C2)c1ccc(C)nc1 (stereo not drawn) [Compound 259] : 96
